Entries annotated with measured inhibition
assay: NOD1 signaling inhibitors, primary screen, cell-based, luminescence, uHTS (AID 1578); details: NOD1-driven NF-kB luciferase reporter cells, at 4 µM, active compounds read high;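 note: HEK-293T reporter cells stimulated with the NOD1 agonist gamma-tri-DAP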
Screen size: about 290,000 compounds; about 3,000 (1%) were called active. This is one part of a sample in which actives are shown more often than they occur.
PARAMETER MEASURED: inhibition

SMILES INPUT: Clc1ccc(-n2ncc3c(N4CCCCCC4)ncnc32)cc1
READING: 78.4% (active)

SMILES INPUT: O=C(CNC(=O)c1ccco1)NCCCc1ccccc1
READING: 17.4% (inactive)

SMILES INPUT: CCCN(CCC)c1ncnc2c1cnn2-c1ccc(OC)cc1
READING: -46.4% (inactive)

SMILES INPUT: COc1ccc(-n2ncc3c(N4CCC(C(N)=O)CC4)ncnc32)cc1
READING: -30% (inactive)

###

assay: NOD1 signaling inhibitors, primary screen, cell-based, luminescence, uHTS (AID 1578); details: NOD1-driven NF-kB luciferase reporter cells, at 4 µM, active compounds read high;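 note: HEK-293T reporter cells stimulated with the NOD1 agonist gamma-tri-DAP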
Hit rate of the full screen: of about 290,000 compounds, about 3,000 (1%) were called active. This is one part of a sample in which actives are shown more often than they occur.
Entries annotated with measured inhibition

COMPOUND: CCOC(=O)c1c(NC(=O)N/N=C/c2ccc(O)c(OC)c2)sc(C(C)=O)c1C
UNIT DESCRIPTOR: %
inhibition: 53.1

COMPOUND: O=C(COC(=O)c1ccco1)Nc1ccccc1[N+](=O)[O-]
UNIT DESCRIPTOR: %
inhibition: -4.7

COMPOUND: COc1ccccc1CN1CC(C(=O)NCCc2ccc(Cl)cc2)CC1=O (stereo not given)
UNIT DESCRIPTOR: %
inhibition: -8.7

COMPOUND: CC(=O)/C(C#N)=C1\NC(=O)C(Cc2cc(Cl)ccc2Cl)S1 (stereo not given)
UNIT DESCRIPTOR: %
inhibition: 55

COMPOUND: CCCCNS(=O)(=O)c1ccc2nc(SCC(=O)Nc3ccccc3)[nH]c2c1
UNIT DESCRIPTOR: %
inhibition: -15.3

COMPOUND: N#C/C(=C(/O)CN1CCOCC1)c1nc(-c2ccccc2)cs1
UNIT DESCRIPTOR: %
inhibition: -15.4

COMPOUND: CCN(CCO)Cc1cc(=O)oc2c(C)c(C)ccc12
UNIT DESCRIPTOR: %
inhibition: 8.5

COMPOUND: O=C(Nc1cccc(-c2nnc(-c3ccccc3)o2)c1)C1CC1
UNIT DESCRIPTOR: %
inhibition: 2.9

COMPOUND: COc1cc2ccc(=O)oc2c(CC=C(C)C)c1OC
UNIT DESCRIPTOR: %
inhibition: -5.1

COMPOUND: C/C(=C/Cc1c(O)cc2oc(C)cc(=O)c2c1O)COC1OC(CO)C(O)C(O)C1O (stereo not given)
UNIT DESCRIPTOR: %
inhibition: -47.3

COMPOUND: COc1ccccc1N1CCN(C2CCCN(C(=O)CCC(C)=O)C2)CC1 (stereo not given)
UNIT DESCRIPTOR: %
inhibition: -21

COMPOUND: CCOC(=O)c1c(NC(=O)C(=O)N/N=C/c2ccccc2OC)sc2c1CCCCC2
UNIT DESCRIPTOR: %
inhibition: 7.6

COMPOUND: Cc1cc(C)n(C(=O)CCCCCCCC(=O)n2nc(C)cc2C)n1
UNIT DESCRIPTOR: %
inhibition: -26.9

COMPOUND: CCC(C)[C@H](NC(=O)N1CCn2c1nc1ccccc12)C(=O)NCc1ccccc1 (stereo not given in full)
UNIT DESCRIPTOR: %
inhibition: -0.4

COMPOUND: COc1ccc(S(=O)(=O)Nc2c(NC3CCCCC3)c3ccccc3oc2=O)cc1OC
UNIT DESCRIPTOR: %
inhibition: -7.5

All values here come from PubChem BioAssay AID1578.
